- Protocol text: Cytotoxicity against human HEK293 cells after 24 hrs by MTT assay
- Type: cell-based
Endpoint: CC50 at 24 h (nM)

smiles_data=CC(C)C[C@H](NC(=O)[C@H](Cc1ccccc1)NC(=O)c1cnccn1)B(O)O endpoint="CC50 at 24 h" number=347

###

- Protocol text: Inhibition of intracellular chymotrypsin-like activity of 20S proteasome in human HEK293 cells after 24 hrs by fluorescence plate reader
- Type: cell-based
- Condition notes: HEK293, 24 h
pIC50: −log10 of the molar value.
Here the recorded pIC50 is given for each entry.
Endpoint: pIC50

smiles_data=CC(C)C[C@H](NC(=O)[C@@H](N)C(C)(C)O)B(O)O result="< 5.00"
smiles_data=CC(C)C[C@H](NC(=O)[C@H](C)N)B(O)O result="< 5.00"
smiles_data=CC(C)C[C@H](NC(=O)[C@@H](N)CC(N)=O)B(O)O result="< 5.00"
smiles_data=CC(C)C[C@H](NC(=O)[C@@H](N)C(C)(C)C)B(O)O result="< 5.00"
smiles_data=CC(C)C[C@H](NC(=O)[C@@H](N)Cc1ccc(F)cc1)B(O)O result="< 5.00"
smiles_data=CCC[C@H](N)C(=O)N[C@@H](CC(C)C)B(O)O result="< 5.00"
smiles_data=CC(C)C[C@H](NC(=O)[C@@H](N)CO)B(O)O result="< 5.00"
smiles_data=CC[C@H](N)C(=O)N[C@@H](CC(C)C)B(O)O result="< 5.00"
smiles_data=CC(C)C[C@H](NC(=O)[C@@H](N)Cc1cnc[nH]1)B(O)O result="< 6.00"
smiles_data=CC(C)C[C@H](NC(=O)[C@@H](N)CC(C)C)B(O)O result="< 5.00"
smiles_data=CC(C)C[C@H](NC(=O)[C@@H](N)C1CCCCC1)B(O)O result="< 5.00"
smiles_data=CC(C)C[C@H](NC(=O)[C@@H](N)Cc1ccccc1)B(O)O result="< 5.00"
smiles_data=CC(C)C[C@H](NC(=O)[C@@H](N)CC(C(=O)O)C(=O)O)B(O)O result="< 5.00"
